Consider the following compounds and their measured %Inh readings.
system: CDK4-cyclinD3; conditions: concentration: 1 μM, replicates: in singlicate; n = 1;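 further: KINOMEscan kinase panel screen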

# compound, %Inh / %
records = [
    ("Cl.Cn1ccc(-c2cccc(Nc3ccnc4cc(-c5nccs5)ccc34)c2)n1", 0),
    ("FC(F)(F)c1ccc(-c2nn3ncccc3c2-c2ccnc(Nc3cccc(C(F)(F)F)c3)n2)cc1", 0),
    ("CCc1nc(-c2cccc(C)c2)c(-c2ccnc(NC(=O)c3ccccc3)c2)s1", 6),
    ("N#Cc1ccc(Oc2ccc(Nc3ncnc4cc[nH]c34)cc2Cl)cc1", 6),
    ("C[C@@H]1CCN(C(=O)CO)C[C@@H]1N(C)c1ncnc2[nH]ccc12", 0),
    ("Clc1cc(Nc2ncnc3cc[nH]c23)ccc1OCc1ccccn1", 0),
    ("CN1c2ccc(-c3ccc(C(=O)NCCO)cc3)cc2-c2[nH]ncc2S1(=O)=O", 12),
    ("Cl.O=S(=O)(c1cccc(F)c1)c1ccc(Nc2ncnc3cc(Br)sc23)cc1Cl", 7),
    ("COc1cc2c(Nc3cccc(NC(=O)c4ccccc4)c3)ncnc2cc1OCCCN1CCOCC1", 0),
    ("Nc1nc(-c2ccc3c(N)n[nH]c3c2)cc(N2CCCCC2)n1", 0),
    ("CC(=O)Nc1n[nH]c2ncc(-c3ccccc3)cc12", 1),
    ("CCn1c(-c2ccncc2)nc2cnccc21", 0),
    ("FC(F)(F)c1cc(Nc2nccc(-c3c(-c4ccc(Cl)cc4)nn4ncccc34)n2)ccc1Cl", 0),
    ("c1ccc(-c2ccc3c(-c4ccnc(Nc5ccc6c(c5)OCCO6)n4)cnn3n2)cc1", 0),
    ("COC(=O)c1cccc(NC(=O)NCCNc2ccnc(Nc3ccc(F)cc3)n2)c1", 0),
    ("COc1ccc(Nc2nccc(N3CCC(NC(=O)c4cccc(NC(C)=O)c4)C3)n2)cc1 (stereo not shown)", 0),
]

* * *

Consider the following compounds and their measured %Inh readings.
system: S6K1; details: concentration: 1 μM, replicates: in singlicate; n = 1

# smiles, %Inh (%)
rows = [
    ("C[C@H]1CC[C@@H](C(=O)Nc2ccccc2)CN1c1cc(-c2ccc3c(N)n[nH]c3c2)nc(N)n1", 0),
    ("Cl.Fc1ccccc1COc1ccc(Nc2ncnc3ccc(-c4nnc(C(F)(F)F)o4)cc23)cc1Cl", 0),
    ("Clc1cccc(-c2nc(Nc3ccncc3)c3ccccc3n2)c1", 0),
    ("Fc1ccc(-c2ncn(CCCNCc3ccccc3)c2-c2ccncc2)cc1", 19),
    ("COc1ccc(-c2oc3ncnc(N)c3c2-c2ccc(OC)cc2)cc1", 16),
    ("Cl.c1ccc(Cn2ccc3cc(Nc4ncnc5ccccc45)ccc32)cc1", 0),
]

* * *

system: PRKD2; details: concentration: 1 μM, replicates: in singlicate; n = 1
Consider the following compounds and their measured %Inh readings.

# compound, %Inh / %
data = [
    ("O=C(Nc1ccccc1)Nc1ccc(Oc2ccc3nccn3n2)cc1", 6),
    ("CS(=O)(=O)CCNCc1nc(-c2ccc3ncnc(Nc4ccc(OCc5cccc(F)c5)c(Cl)c4)c3c2)cs1.Cl", 2),
    ("Cc1cccc(-c2nc(Nc3ccc4[nH]nnc4c3)c3ccccc3n2)n1", 98.1),
    ("COc1ccc(NC(=O)c2ccc(-c3cc(-c4nnc(C)o4)ccc3C)cc2)cc1", 0),
    ("Cl.O=S(=O)(c1cccc(F)c1)c1ccc(Nc2ncnc3cc(Br)sc23)cc1Cl", 13),
    ("O=C(c1ccc(-c2cc(-c3c[nH]nc3-c3ccccn3)ccn2)cc1)N1CCCC1", 0),
    ("Cl.c1ccc(Cn2ccc3cc(Nc4ncnc5ccccc45)ccc32)cc1", 18),
    ("Cl.c1ccc(Cn2ncc3cc(Nc4ncnc5ccccc45)ccc32)cc1", 2),
    ("CC(C)(C)c1ccc(-n2cnc3c(N)ncnc32)cc1", 0),
    ("Fc1cccc(COc2ccc(Nc3ncnc4sc(-c5ccc[nH]5)cc34)cc2Cl)c1", 54),
    ("C[C@@H]1CCN(C(=O)CO)C[C@@H]1N(C)c1ncnc2[nH]ccc12", 6),
    ("CCC(CC)(CC)n1cnc2c(N)ncnc21", 8),
    ("COC(=O)c1c(-c2ccccc2)c2cc(Cl)ccc2c(=O)n1Cc1ccc(S(C)(=O)=O)cc1", 0),
    ("CCc1nc(-c2cccc(C)c2)c(-c2ccnc(NC(=O)c3ccccc3)c2)s1", 0),
    ("Nc1nc(-c2ccc3c(N)n[nH]c3c2)cc(N2CCC[C@@H](C(=O)Nc3ccccc3)C2)n1.O=C(O)C(F)(F)F.O=C(O)C(F)(F)F", 1),
    ("COc1ccc(Nc2nccc(N3CCC(NC(=O)Nc4ccc5c(c4)OCO5)C3)n2)cc1 (centres unmarked)", 0),
    ("COc1cc2ncnc(Nc3ccc(OCc4ccccc4Br)c(Cl)c3)c2cc1OC.Cl", 0),
]
